System: Spodoptera littoralis
testName: Example B6: activity against Spodoptera littoralis (Egyptian cotton leaf worm), cotton leaf discs
Assay type: in vivo
studyConditions: foliar, 3.12 ppm
Recorded mortality at 3.12 ppm by entry
Write down the numeric answer in % and omit the unit.

# example entries with known answers
{"compound": "C[C@H](Nc1ncnc2c(C(F)(F)F)cc(Cl)cc12)c1ncnn1-c1cc(C(N)=O)ncn1", "recordedValue": 100}
{"compound": "C[C@H](Nc1ncnc2c(Cl)cc(C(F)(F)F)cc12)c1ncnn1-c1cc(C(N)=O)ncn1", "recordedValue": 100}
{"compound": "CC(Nc1ncnc2c(C(F)(F)F)cc(Cl)cc12)c1nccnc1-c1cc(C(N)=O)ncn1 (stereo not drawn)", "recordedValue": 80}
{"compound": "C[C@H](Nc1ncnc2c(C(F)(F)F)cc(Cl)cc12)c1ncnn1-c1cnc(C(N)=O)cn1", "recordedValue": 100}
{"compound": "C[C@H](Nc1ncnc2c(C(F)(F)F)cc(C(F)(F)F)cc12)c1ncnn1-c1ccc(C(N)=O)cn1 [WO 21/083936 P.157, reference compound]", "recordedValue": 0}

For this compound ( CC(Nc1ncnc2c(C(F)(F)F)cc(Cl)cc12)c1nccnc1-c1ncccn1 (stereo not drawn) [WO 21/083936 P.130, reference compound] ), measured mortality at 3.12 ppm is 0
